- TEST TARGET: recombinant human LTA4 hydrolase (rhLTA4H) (Homo sapiens)
- Sequence (P09960 1-611): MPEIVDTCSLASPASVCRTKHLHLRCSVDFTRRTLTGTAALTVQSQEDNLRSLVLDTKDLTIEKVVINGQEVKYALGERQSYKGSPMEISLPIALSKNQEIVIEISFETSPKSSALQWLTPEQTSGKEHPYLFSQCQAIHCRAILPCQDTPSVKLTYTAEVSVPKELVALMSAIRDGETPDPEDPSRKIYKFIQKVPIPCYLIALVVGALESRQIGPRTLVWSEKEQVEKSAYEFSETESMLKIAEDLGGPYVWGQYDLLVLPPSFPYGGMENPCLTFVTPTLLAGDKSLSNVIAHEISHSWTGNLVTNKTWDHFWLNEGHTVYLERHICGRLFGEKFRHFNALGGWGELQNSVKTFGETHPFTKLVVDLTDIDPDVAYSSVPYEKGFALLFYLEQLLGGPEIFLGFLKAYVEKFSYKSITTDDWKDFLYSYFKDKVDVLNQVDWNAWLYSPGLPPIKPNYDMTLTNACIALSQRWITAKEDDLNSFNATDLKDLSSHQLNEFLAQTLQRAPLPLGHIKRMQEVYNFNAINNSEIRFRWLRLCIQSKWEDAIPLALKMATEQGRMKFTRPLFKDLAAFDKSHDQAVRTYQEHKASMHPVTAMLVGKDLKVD
- TEST METHOD NOTES: Recombinant Human LTA4 Hydrolase Assay for LTA4 Hydrolase Inhibitor Activity
- ASSAY SETUP: average of results obtained; LTB4 quantified by enzyme-linked immunoassay
PROPERTY: pKi
Kindly note that pKi refers to -log10 of the concentration in mol/L and answer with the value alone.

Task item: # get_value(readout= pKi, system= recombinant human LTA4 hydrolase (rhLTA4H) (Homo sapiens)) for NC(=O)N1CCC2CN(Cc3ccc(Oc4nc5ccccc5s4)cc3)CC21 (stereo not drawn)
Reply: 7.24

Task item: # value lookup — system recombinant human LTA4 hydrolase (rhLTA4H) (Homo sapiens), readout pKi, item NC(=O)N1CC2CN(CCOc3ccc(Oc4nc5ccccc5s4)cc3)CC2C1 (stereo not drawn)
Reply: 7.49

Task item: What measured pKi is associated with "NC(=O)N[C@H]1C[C@H]2CC[C@@H](C1)N2Cc1ccc(Cc2nc3ccccc3o2)cc1" on recombinant human LTA4 hydrolase (rhLTA4H) (Homo sapiens)?
Reply: 7.36

Reference source: patent US8344008B2
